Test: anti-tRV ELISA measurement of tRV in human serum after 100 mg tRV capsule (nutraceutical study)
Assay type: in vivo
Settings: human, serum, oral, 100 mg, 3 h after 100 mg tRV; volunteers 1 and 2
READOUT_NAME: concentration at 3 h (ng/mL)
Your answer should be a plain number; it is taken to be in ng/mL.

Item: Oc1ccc(/C=C/c2cc(O)cc(O)c2)cc1 [tRV, trans-Resveratrol] | concentration at 3 h: 20

* * *

Test: anti-tRV ELISA measurement of tRV in human serum after 100 mg tRV capsule (nutraceutical study)
Type: in vivo
Conditions: human, serum, oral, 100 mg, 6 h after 100 mg tRV; volunteers 1 and 2
READOUT_NAME: concentration at 6 h (ng/mL)
Supply the numeric figure in ng/mL, leaving out any unit text.

compound Oc1ccc(/C=C/c2cc(O)cc(O)c2)cc1 [tRV, trans-Resveratrol] , concentration at 6 h observed: 420

* * *

Experiment: HPLC-MS measurement of tRV in human serum after 100 mg tRV capsule (nutraceutical study)
Assay type: in vivo
Conditions: human, serum, oral, 100 mg, 1 h after 100 mg tRV; volunteers 1 and 2
Protocol: The group of 5 volunteers comprised of 2 female and 3 male clinically healthy Caucasian persons, age between 23 and 35 years. They were asked, before commencing this experiment, to go for 3-4 days “wash-out”, when consumption of any grape, wine, peanut, chocolate and other products which might contain them. In the morning of the experiment, one hour after light breakfast, volunteers were given 1 gelatine capsule containing 100 mg of tRV. […]
READOUT_NAME: concentration at 1 h

Notebook: Oc1ccc(/C=C/c2cc(O)cc(O)c2)cc1 [tRV, trans-Resveratrol] , concentration at 1 h read as 65 ng/mL

* * *

Test: anti-tRV ELISA measurement of tRV in human serum after 100 mg tRV capsule (nutraceutical study)
Assay type: in vivo
Conditions: human, serum, oral, 100 mg, 2 h after 100 mg tRV; volunteers 1 and 2
READOUT_NAME: concentration at 2 h (ng/mL)
The reply should be a number in ng/mL, with the unit left off.

Entry Oc1ccc(/C=C/c2cc(O)cc(O)c2)cc1 [tRV, trans-Resveratrol] ; concentration at 2 h = 210

* * *

Experiment: anti-tRV ELISA measurement of tRV in human serum after 100 mg tRV capsule (nutraceutical study)
Format: in vivo
Conditions: human, serum, oral, 100 mg, 1 h after 100 mg tRV; volunteers 1 and 2
READOUT_NAME: concentration at 1 h
The number alone won't do; follow it with the unit.

For Oc1ccc(/C=C/c2cc(O)cc(O)c2)cc1 [tRV, trans-Resveratrol] the compound record lists concentration at 1 h as 650 ng/mL
